src = patent US8603966B2

test: High throughput screen: Tb3+/DPA leakage from liposomes; conditions: labeled peptide:lipid 1:300; % of Tb3+ released after 60 minutes vs Triton-X 100 solubilized control (100% leakage)
No end group written: not given here.
Listed below: % Leakage values for each entry.
Numeric answer only, unit % assumed.

- PKQLLRLLLGQF [SEQ ID NO: 20]: 90
- RLIYLRLLRGQF [SEQ ID NO: 01]: 24
- PLIYPFLRLGQF [SEQ ID NO: 09]: −0.2
- RLILRQLLLGQF [SEQ ID NO: 19]: 102
- PRKLLQLLLGQF [SEQ ID NO: 13]: 86

Prompt: Returns the measured % Leakage for the input substance. Input: Pro-Leu-Ile-Tyr-Leu-Arg-Leu-Leu-Arg-Gly-Gln-Phe [SEQ ID NO: 04]
Completion: 2.8

Prompt: Returns the measured % Leakage for the input substance. Input: PRIYLRLLLGQF [SEQ ID NO: 14]
Completion: 82
